# reported fraction ligated; entries follow
B1: F1*; the commonest letter at each place (parent)
chain: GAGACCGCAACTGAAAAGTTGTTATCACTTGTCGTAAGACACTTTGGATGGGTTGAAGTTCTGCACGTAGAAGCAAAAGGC

variants of: B1; assay: fraction ligated after 30 min (ligated reads / total reads); higher = more ligase activity; details: with F1*sub RNA substrate (template-directed ligation), 42 °C
No unit in the answer, only the number.

[
  {
    "seq.text": "GAGACCGCAACTGAAAAGTTGTTACCACTTGGCGTAAGACACTTTGGATGGGTTGAAGTTCTGCACGTAGAAGCAAAAGGC [T25C T32G]",
    "fraction ligated": 0.707
  },
  {
    "seq.text": "GAGACCGCAACTGAAAAGTTGTTATCACTTGTCGTGAGACAATTTGGATGGGTTGAAGTTCTGCACGTAGAAGCAAAAGGC [A36G C42A]",
    "fraction ligated": 0.836
  },
  {
    "seq.text": "GAGACCGCAACTGAAAAGTTGTTATCACTTGTCGTACGACACTCTGGATGGGTTGAAGTTCTGCACGTAGAAGCAAAAGGC [A37C T44C]",
    "fraction ligated": 0.843
  },
  {
    "seq.text": "GAGACCGCAACTGAAAAGTTGTTATCACATGTCGTGAGACACTTTGGATGGGTTGAAGTTCTGCACGTAGAAGCAAAAGGC [T29A A36G]",
    "fraction ligated": 0.853
  },
  {
    "seq.text": "GAGACCGCAACTGAAAAGTTGTTATCACGTGTCGTAAGACACGTTGGATGGGTTGAAGTTCTGCACGTAGAAGCAAAAGGC [T29G T43G]",
    "fraction ligated": 0.777
  },
  {
    "seq.text": "GAGACCGCAACTGAAAAGTTGTTATCACTTGTCGTAAGAGATTTTGGATGGGTTGAAGTTCTGCACGTAGAAGCAAAAGGC [C40G C42T]",
    "fraction ligated": 0.8
  },
  {
    "seq.text": "GAGACCGCAACTGAAAAGTTGTTATCACTTGTCCTAAGACACTTTGGCTGGGTTGAAGTTCTGCACGTAGAAGCAAAAGGC [G34C A48C]",
    "fraction ligated": 0.756
  },
  {
    "seq.text": "GAGACCGCAACTGAAAAGTTGTTATCACTTGTCGTAAGAAACTTTGGAAGGGTTGAAGTTCTGCACGTAGAAGCAAAAGGC [C40A T49A]",
    "fraction ligated": 0.517
  },
  {
    "seq.text": "GAGACCGCAACTGAAAAGTTGTTATCACTTGACGTAATACACTTTGGATGGGTTGAAGTTCTGCACGTAGAAGCAAAAGGC [T32A G38T]",
    "fraction ligated": 0.825
  },
  {
    "seq.text": "GAGACCGCAACTGAAAAGTTGTTATCACATGTCGTAAGACACTTTAGATGGGTTGAAGTTCTGCACGTAGAAGCAAAAGGC [T29A G46A]",
    "fraction ligated": 0.808
  }
]

The reported fraction ligated of the variant GAGACCGCAACTGAAAAGTTGTTATCACTTGTCGAAAGACATTTTGGATGGGTTGAAGTTCTGCACGTAGAAGCAAAAGGC [T35A C42T] was 0.85

Reported fraction ligated for GAGACCGCAACTGAAAAGTTGTTATCACTGGTCGTAAGACACTCTGGATGGGTTGAAGTTCTGCACGTAGAAGCAAAAGGC [T30G T44C] was 0.808

fraction ligated in this record for GAGACCGCAACTGAAAAGTTGTTATCACTTGTCGTAAGCCACTTTGGATGGGTTAAAGTTCTGCACGTAGAAGCAAAAGGC [A39C G55A] : 0.821

Lab note: GAGACCGCAACTGAAAAGTTGTTATCACTAGTCGTAAGACACTGTGGATGGGTTGAAGTTCTGCACGTAGAAGCAAAAGGC [T30A T44G] gave fraction ligated of 0.825

Entry GAGACCGCAACTGAAAAGTTGTTGTCAGTTGTCGTAAGACACTTTGGATGGGTTGAAGTTCTGCACGTAGAAGCAAAAGGC [A24G C28G] — recorded fraction ligated = 0.701

GET /value?item= GAGACCGCAACTGAAAAGTTGTTTTCACTTGTCGTAAGACTCTTTGGATGGGTTGAAGTTCTGCACGTAGAAGCAAAAGGC [A24T A41T] &field=fraction ligated returns 0.785

The variant identified as GAGACCGCAACTGAAAAGTTGTTATCACTTGTCGTCAGACACTCTGGATGGGTTGAAGTTCTGCACGTAGAAGCAAAAGGC [A36C T44C] registered its fraction ligated at 0.815

In plain terms, GAGACCGCAACTGAAAAGTTGTGATCACTTGTCGTAAGACACTTGGGATGGGTTGAAGTTCTGCACGTAGAAGCAAAAGGC [T23G T45G] has a documented fraction ligated of 0.523
